- Tested on: MOLM13
- assay details: Cell viability by Cell Titer GLO, MOLM13
- Type: cell-based
- conditions: MOLM13; 20 nM alvocidib 48 h, then 48 h inhibitor
pIC50: −log10 of the molar value.
result type: pIC50

1. Cc1sc2c(c1C)C(c1ccc(Cl)cc1)=N[C@@H](CC(=O)OC(C)(C)C)c1nnc(C)n1-2 | 6.68

---

- Test system: MV4-11
- assay details: Cell viability by Cell Titer GLO, MV4-11
- Type: cell-based
- conditions: Homo sapiens, MV4-11, 48 h, 20 nM alvocidib 48 h, then 48 h inhibitor
- Procedure: MOLM13 and MV4-11 are MLL fusion and FLT3-ITD positive, AML cells lines. […] At completion, cell viability was measured by Cell Titer GLO reagent. IC50 values were determined for JQ-1 and panobinostat with and without the low dose of alvocidib. […]
result type: IC50 (nM)

1. Cc1[nH]c2ccccc2c1CCNCc1ccc(/C=C/C(=O)NO)cc1 | 3

Data provenance is patent US20200316084A1.
